Source: PubChem BioAssay (NCI)

test system: NCI-H23 lung; experiment: NCI-60 one-dose screen, 48 h (100 = growth as untreated, 0 = no growth, -100 = all killed); conditions: 10 µM unless noted
Compounds without any hit were thinned out: in the full panel of roughly 83,000, 20% have a hit.
What growth was measured for each of the following?
Respond with the bare value in %.

Record summary for `O=C1/C(=C/c2ccc(C(F)(F)F)cc2)COc2ccc(O)c(O)c21` : reported growth = 38

Record summary for `C/C(=C(\c1ccc(OCCN2CCCCCC2)cc1)c1ccc(OC(=O)Cc2ccccc2)cc1)c1ccc(Cl)cc1` : reported growth = 48.5

Record summary for `COc1ccc(-c2ccc(-c3ccc(C(=N)N)cn3)s2)cc1` : reported growth = 98.8

Record summary for `COC(=O)c1nc(-c2ccccc2)oc1S(=O)(=O)N1CCC(C(N)=O)CC1` : reported growth = 90.4

Record summary for `CC(C)(C)c1cc(C=Nc2cccc(C(F)(F)F)c2)c(O)c(C(C)(C)C)c1` : reported growth = 88.5
